Values compiled from the supplement of paper PMC6555819.

system: VDR homodimer (NR concentration 270 nM); assay: PBM binding z-score (relative to random genomic background probes); higher = stronger binding; sequences stand for … in GC…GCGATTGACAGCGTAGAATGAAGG
Can you tell me PBM binding z-score for the items I'm about to list?

>  <MONOMER SEQUENCE>
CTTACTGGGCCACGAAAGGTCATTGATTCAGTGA

>  <PBM binding z-score>
1.78

$$$$
>  <MONOMER SEQUENCE>
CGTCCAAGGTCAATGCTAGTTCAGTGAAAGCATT

>  <PBM binding z-score>
3.28

$$$$
>  <MONOMER SEQUENCE>
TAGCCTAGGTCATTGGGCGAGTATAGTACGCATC

>  <PBM binding z-score>
1.08

$$$$
>  <MONOMER SEQUENCE>
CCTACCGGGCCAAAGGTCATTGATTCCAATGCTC

>  <PBM binding z-score>
2.38

$$$$

For each entry beneath this line, provide reported PBM binding z-score.
1. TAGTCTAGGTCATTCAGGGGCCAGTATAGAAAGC
2. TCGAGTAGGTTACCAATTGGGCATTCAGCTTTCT
3. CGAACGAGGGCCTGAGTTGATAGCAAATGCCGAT
4. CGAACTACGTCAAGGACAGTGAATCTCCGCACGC
5. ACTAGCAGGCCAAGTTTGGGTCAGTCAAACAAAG
6. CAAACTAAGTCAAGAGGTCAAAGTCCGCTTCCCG
7. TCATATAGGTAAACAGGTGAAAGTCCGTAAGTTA

Ans.
1: 1.88; 2: -0.653; 3: -0.394; 4: 0.0374; 5: -0.265; 6: 4.04; 7: 0.358

Please state, for each entry, its recorded PBM binding z-score.
1. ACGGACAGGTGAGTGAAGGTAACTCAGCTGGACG
2. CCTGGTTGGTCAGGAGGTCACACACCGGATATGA
3. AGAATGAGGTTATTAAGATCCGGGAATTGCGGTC

Ans.
1. -0.502
2. 2.44
3. 0.784

Quick one: give me PBM binding z-score for each item below, same order please.
1. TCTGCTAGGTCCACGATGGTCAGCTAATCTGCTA
2. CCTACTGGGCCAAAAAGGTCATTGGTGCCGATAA
3. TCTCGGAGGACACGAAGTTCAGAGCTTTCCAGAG

Ans.
[-0.326, 2.89, 2.38]
